Biological target: human mAChR M4 (Homo sapiens, UniProt P08173)
Sequence (P08173 1-479): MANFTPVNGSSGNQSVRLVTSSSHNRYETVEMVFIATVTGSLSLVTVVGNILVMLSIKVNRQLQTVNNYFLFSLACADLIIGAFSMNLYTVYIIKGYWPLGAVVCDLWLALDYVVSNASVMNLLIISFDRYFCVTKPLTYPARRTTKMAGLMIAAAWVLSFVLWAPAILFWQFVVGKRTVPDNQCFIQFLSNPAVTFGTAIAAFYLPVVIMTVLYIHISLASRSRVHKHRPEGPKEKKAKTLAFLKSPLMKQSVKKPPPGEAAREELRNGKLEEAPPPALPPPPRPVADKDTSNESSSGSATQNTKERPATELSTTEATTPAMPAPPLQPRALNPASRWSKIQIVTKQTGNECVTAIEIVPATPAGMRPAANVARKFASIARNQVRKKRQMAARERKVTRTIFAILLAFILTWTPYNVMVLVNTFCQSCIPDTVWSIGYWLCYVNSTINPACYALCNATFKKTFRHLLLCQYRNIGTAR
Test: mAChR M4 cell-based functional assay: calcium mobilization (Fluo-4, FDSS), potentiation of EC20 acetylcholine response in hM4-Gqi5 CHO-K1 cells
Conditions: potentiation of EC20 acetylcholine response, calcium mobilization, human M4
Readout Label: log10 EC50 (log10 of the value in nM)
Reminder: these figures are log10 of reported EC50, in nM before transformation.

Report log10 EC50 for CCc1ccccc1-c1cnc2c(c1)CN(c1nn3c(=O)cc(C)nc3c(C)c1C)CC2 [Compound 1-249] please.
3.00

Report log10 EC50 for Cc1cc2nccc(=O)n2nc1N1CCc2ncc(Nc3cc(F)nc(F)c3)cc2C1 [Compound 2-100] please.
1.59

Report log10 EC50 for COc1cncc(-c2cnc3c(c2)CN(c2nn4c(=O)ccnc4cc2C)CC3)c1 [Compound 1-52] please.
2.37

Report log10 EC50 for COCc1cc(=O)n2nc(N3CCc4ncc(-c5ccc(C)nc5)cc4C3)c(C)cc2n1 [Compound 1-314] please.
2.04

Report log10 EC50 for COc1cc(C)c(-c2cnc3c(c2)CN(c2nn4c(=O)cc(C)nc4c(C)c2C)CC3)cn1 [Compound 1-198] please.
3.28

Report log10 EC50 for Cc1cc2nccc(=O)n2nc1N1CCc2ncc(Nc3cc(Cl)cnc3F)cc2C1 [Compound 2-116] please.
1.72

Report log10 EC50 for Cc1cc(=O)n2nc(N3CCc4ncc(-c5ccccc5OC(F)(F)F)cc4C3)c(C)c(C)c2n1 [Compound 1-275] please.
3.25

Report log10 EC50 for Cc1c(N2CCc3ncc(-c4ccc(C5CC5)nc4)cc3C2)nn2c(=O)ccnc2c1C [Compound 1-91] please.
2.10

Report log10 EC50 for Cc1cc2nccc(=O)n2nc1N1CCc2ncc(Nc3c(F)ccnc3C)cc2C1 [Compound 2-114] please.
2.22

Report log10 EC50 for Cc1cc(=O)n2nc(N3CCc4ncc(-c5cnn6ccccc56)cc4C3)c(C)c(C)c2n1 [Compound 1-181] please.
2.81

Report log10 EC50 for COc1cncc(-c2cnc3c(c2)CN(c2nn4c(=O)cc(C(F)(F)F)nc4cc2C)CC3)c1 [Compound 1-74] please.
2.65

Report log10 EC50 for Cc1cc(=O)n2nc(N3CCc4ncc(-c5cc(F)nc(F)c5)cc4C3)c(C)cc2n1 [Compound 1-242] please.
2.79

Report log10 EC50 for Cc1c(N2CCc3ncc(C4CCOCC4)cc3C2)nn2c(=O)ccnc2c1C [Compound 1-429] please.
2.95

Report log10 EC50 for Cc1cc2nccc(=O)n2nc1N1CCc2ncc(Nc3cccc(C#N)c3)cc2C1 [Compound 2-80] please.
1.67

Report log10 EC50 for Cc1cc2nccc(=O)n2nc1N1CCc2ncc(-c3cn(C(F)F)nc3C)cc2C1 [Compound 1-417] please.
2.77

Report log10 EC50 for Cc1cc(=O)n2nc(N3CCc4ncc(-c5ccccc5Cl)cc4C3)c(C)cc2n1 [Compound 1-256] please.
2.76

Report log10 EC50 for Cc1cc2nccc(=O)n2nc1N1CCc2ncc(-c3cn(C)nc3C(F)(F)F)cc2C1 [Compound 1-411] please.
3.09

Report log10 EC50 for Cc1cc2nc(C(F)(F)F)cc(=O)n2nc1N1CCc2ncc(Nc3ccncc3F)cc2C1 [Compound 2-160] please.
0.90

Report log10 EC50 for Cc1cnccc1-c1cnc2c(c1)CN(c1nn3c(=O)cc(C(F)F)nc3c(C)c1C)CC2 [Compound 1-307] please.
1.84

Report log10 EC50 for Cc1cc2nccc(=O)n2nc1N1CCc2ncc(-c3sc(C(=O)NC4CC4)cc3C)cc2C1 [Compound 1-428] please.
2.55

Report log10 EC50 for Cc1cc2nccc(=O)n2nc1N1CCc2ncc(NCC3CC3)cc2C1 [Compound 2-89] please.
2.52

Report log10 EC50 for [2H]C1([2H])Cc2ncc(Nc3ccncc3F)cc2C([2H])([2H])N1c1nn2c(=O)ccnc2cc1C [Compound 2-164] please.
0.85

Report log10 EC50 for COCc1cc(=O)n2nc(N3CCc4ncc(-c5cnccc5OC)cc4C3)c(C)cc2n1 [Compound 1-384] please.
3.01

Report log10 EC50 for Cc1cc2nccc(=O)n2nc1N1CCc2ncc(-c3ncsc3C)cc2C1 [Compound 1-393] please.
3.02

Report log10 EC50 for Cc1ccc2c(c1)N(c1cnc3c(c1)CN(c1nn4c(=O)ccnc4cc1C)CC3)CCO2 [Compound 2-53] please.
1.45

Report log10 EC50 for COc1cncc(Nc2cnc3c(c2)CN(c2nn4c(=O)ccnc4cc2C)CC3)c1 [Compound 2-137] please.
2.51

Report log10 EC50 for Cc1cc2nccc(=O)n2nc1N1CCc2ncc(N3CC(C)Oc4cc(F)ccc43)cc2C1 (centres unmarked) [Compound 2-55] please.
2.03

Report log10 EC50 for Cc1cc(=O)n2nc(N3CCc4ncc(N5CCCn6nc(C)cc65)cc4C3)c(C)cc2n1 [Compound 2-21] please.
1.57

Report log10 EC50 for Cc1cc(=O)n2nc(N3CCc4ncc(-c5ccccc5F)cc4C3)c(C)c(C)c2n1 [Compound 1-251] please.
2.46

Report log10 EC50 for Cc1cc2nc(C(F)F)cc(=O)n2nc1N1CCc2ncc(Nc3ccnn3C)cc2C1 [Compound 2-27] please.
1.61

Report log10 EC50 for Cc1cc2nccc(=O)n2nc1N1CCc2ncc(Nc3ccncc3)cc2C1 [Compound 2-97] please.
1.96

Report log10 EC50 for Cc1cc2nccc(=O)n2nc1N1CCc2ncc(N3CCOC(Cc4ccccc4)C3)cc2C1 (centres unmarked) [Compound 2-99] please.
2.62
